Molecular target: EGFR (d746-750) (Homo sapiens (Human), UniProt P00533, DEL746-750)
Sequence (P00533 other isoform, or with tags, fused parts or gaps del 1-694/del 746-750 limits assumed): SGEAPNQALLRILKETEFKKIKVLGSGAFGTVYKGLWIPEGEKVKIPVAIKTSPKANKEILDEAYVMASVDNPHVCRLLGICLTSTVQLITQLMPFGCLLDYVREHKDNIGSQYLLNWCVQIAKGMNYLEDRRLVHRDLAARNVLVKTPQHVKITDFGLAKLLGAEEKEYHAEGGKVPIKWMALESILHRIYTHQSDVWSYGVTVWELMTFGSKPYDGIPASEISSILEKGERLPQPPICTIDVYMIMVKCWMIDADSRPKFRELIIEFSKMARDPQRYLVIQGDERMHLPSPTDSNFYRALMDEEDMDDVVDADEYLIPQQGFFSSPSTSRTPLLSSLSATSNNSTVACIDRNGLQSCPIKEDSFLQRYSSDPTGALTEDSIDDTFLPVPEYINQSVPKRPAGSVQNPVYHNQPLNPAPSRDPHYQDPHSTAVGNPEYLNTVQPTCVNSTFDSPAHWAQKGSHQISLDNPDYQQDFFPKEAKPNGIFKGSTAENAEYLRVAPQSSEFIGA
Assay: Biochemical EGFR inhibition assay, EGFR (d746-750)
Settings: Caliper mobility shift; 1.0 mM ATP or ATP Km; read-out: Enz EGFR_Exon19-del746-750 IC50

- molecule: "COc1cc2ncnc(-c3cn(C)nc3-c3ccccc3)c2cc1O[C@H]1CCOC1"
  IC50: "1.9 nM"
- molecule: "COc1cc2ncnc(-c3cn(C)nc3-c3ccccc3)c2cc1NC(=O)c1cnn(C(C)C)c1"
  IC50: "0.7 nM"
- molecule: "COc1cc2ncnc(-c3cn(C)nc3-c3ccccc3)c2nc1NC(=O)c1ccc(C2CC2)nc1"
  IC50: "1.1 nM"
- molecule: "COc1cc2ncnc(-c3cn(CC(F)F)nc3-c3ccccc3)c2cc1OC"
  IC50: "0.8 nM"
- molecule: "CCn1cc(C(=O)Nc2cc3c(-c4cn(CC(F)F)nc4-c4ccccc4)ncnc3cc2OC)cn1"
  IC50: "1.1 nM"
- molecule: "COc1cc2ncnc(-c3cn(C)nc3-c3ccccc3)c2cc1NC(=O)[C@H](C)CN(C)C (single isomer, unassigned)"
  IC50: "1.7 nM"
- molecule: "[2H]C([2H])([2H])Oc1cc2ncnc(-c3cn(C([2H])([2H])[2H])nc3-c3ccccc3)c2nc1NC(=O)C1(C(F)(F)F)CC1"
  IC50: "0.7 nM"
- molecule: "COc1cc2ncnc(-c3cn(C)nc3-c3ccccc3F)c2cc1NC(=O)[C@@]12COC[C@@H]1C2 (single isomer, unassigned)"
  IC50: "0.8 nM"
- molecule: "COc1cc2ncnc(-c3cn(C)nc3-c3ccccc3)c2cc1NC(=O)c1cncnc1"
  IC50: "0.7 nM"
- molecule: "COc1cc2ncnc(-c3cn(CC(F)F)nc3-c3ccccc3)c2cc1NC(=O)[C@@]12COC[C@@H]1C2"
  IC50: "1.6 nM"
- molecule: "COc1cc2ncnc(-c3cn(C4COC4)nc3-c3ccccc3)c2cc1OC(=O)N1CCOC[C@@H]1C"
  IC50: "2.7 nM"
- molecule: "COc1cc2ncnc(-c3cn(C)nc3-c3ccccc3)c2cc1OC(=O)N1CCOCC1(C)C"
  IC50: "2.2 nM"
- molecule: "COc1cc2ncnc(-c3cn(C)nc3-c3ccccc3)c2cc1NC(=O)N1CCN(C)[C@@H](C)[C@H]1C (single isomer, unassigned)"
  IC50: "2.2 nM"
- molecule: "COc1cc2ncnc(-c3cn(C(F)F)nc3-c3ccccc3)c2nc1NC(=O)C12CC(C1)C2"
  IC50: "1 nM"
- molecule: "COc1cc2ncnc(-c3cn(C)nc3-c3ccccc3)c2cc1NC(=O)c1cccnc1C"
  IC50: "1.6 nM"
